- Tested on: K562
- assay method text: Drug resistance index (ratio of IC50 in drug-resistant cells over drug-sensitive cells)
- Type: functional
I would appreciate it if you labelled entries class 1 when Ratio IC50 is 6 or higher, otherwise class 0.

compound: COc1cccc2c1C(=O)c1c(O)c3c(c(O)c1C2=O)C[C@@](O)(C(C)=O)C[C@@H]3O[C@H]1C[C@H](N=[N+]=[N-])[C@H](O[C@H]2C[C@H](O)[C@@H](O)[C@H](C)O2)[C@H](C)O1
class: class 1

compound: COc1cccc2c1C(=O)c1c(O)c3c(c(O)c1C2=O)C[C@@](O)(C(C)=O)C[C@@H]3O[C@H]1C[C@H](N=[N+]=[N-])[C@H](O[C@H]2C[C@@](C)(OC)[C@@H](O)[C@H](C)O2)[C@H](C)O1
class: class 1

compound: COc1cccc2c1C(=O)c1c(O)c3c(c(O)c1C2=O)C[C@@](O)(C(C)=O)C[C@@H]3O[C@H]1C[C@H](N=[N+]=[N-])[C@H](O[C@H]2C[C@H](N=[N+]=[N-])[C@H](O)[C@H](C)O2)[C@H](C)O1
class: class 0

compound: COc1cccc2c1C(=O)c1c(O)c3c(c(O)c1C2=O)C[C@@](O)(C(C)=O)C[C@@H]3O[C@H]1C[C@H](N=[N+]=[N-])[C@H](O[C@H]2C[C@@](C)(O)[C@@H](O)[C@H](C)O2)[C@H](C)O1
class: class 0

compound: COc1cccc2c1C(=O)c1c(O)c3c(c(O)c1C2=O)C[C@@](O)(C(C)=O)C[C@@H]3O[C@H]1C[C@H](N=[N+]=[N-])[C@H](O[C@H]2C[C@H](OC)[C@@H](O)[C@H](C)O2)[C@H](C)O1
class: class 0

compound: COc1cccc2c1C(=O)c1c(O)c3c(c(O)c1C2=O)C[C@@](O)(C(C)=O)C[C@@H]3O[C@H]1C[C@H](N=[N+]=[N-])[C@H](O[C@H]2CC[C@@H](O)[C@H](C)O2)[C@H](C)O1
class: class 0

compound: COc1cccc2c1C(=O)c1c(O)c3c(c(O)c1C2=O)C[C@@](O)(C(C)=O)C[C@@H]3O[C@H]1C[C@H](N=[N+]=[N-])[C@H](O)[C@H](C)O1
class: class 1

compound: COc1cccc2c1C(=O)c1c(O)c3c(c(O)c1C2=O)C[C@@](O)(C(C)=O)C[C@@H]3O[C@H]1C[C@H](N)[C@H](O)[C@H](C)O1.Cl [DAUNORUBICIN HYDROCHLORIDE]
class: class 1
